Values compiled from the supplement of paper PMC10567573.

B1: KLHL20 (parent)
chain: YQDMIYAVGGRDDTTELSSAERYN

Variants of: B1
Assay: protein stability index of a GFP-peptide fusion (GPS, HEK-293T) (PSI 1-6); higher = more stable;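 note: lentivirally expressed fusions sorted by FACS into six bins by GFP to DsRed ratio, PSI derived from sequencing read proportions per bin multiplied by bin number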
Conditions: c terminus: a fixed tail appended
measured-attribute: protein stability index
Form field (numeric): enter value without unit.

Before answering, review these 3 worked examples.
{"columns": ["sequence-code", "protein stability index"],
 "data": [
  ["YQDMIYAVGGRDDTTELSSAEGYN [R22G]", 2.87],
  ["YQDMIYAVGGRDDTTELSWAERYN [S19W]", 1.99],
  ["SQDMIYAVGGRDDTTELSSAERYN [Y1S]", 4.89]
]}

Tell me measured protein stability index for YQDMIYAVGGRDDTTELSSIERYN [A20I] please.
2.05

Tell me measured protein stability index for YQDMIYAVGGRDDTTEPSSAERYN [L17P] please.
2.49

Tell me measured protein stability index for YQLMIYAVGGRDDTTELSSAERYN [D3L] please.
1.81

Tell me measured protein stability index for CQDMIYAVGGRDDTTELSSAERYN [Y1C] please.
4.21

Tell me measured protein stability index for YQDMIYAVGGRDDTTEVSSAERYN [L17V] please.
2

Tell me measured protein stability index for YQDMIPAVGGRDDTTELSSAERYN [Y6P] please.
3.41

Tell me measured protein stability index for YQDIIYAVGGRDDTTELSSAERYN [M4I] please.
2.4
